Sourced from patent US20240043563A1

# target.of.assay: MASP-2-CCS-Flag (human) (UniProt O00187)
# Sequence (O00187 other isoform, or with tags, fused parts or gaps limits assumed, form in doubt): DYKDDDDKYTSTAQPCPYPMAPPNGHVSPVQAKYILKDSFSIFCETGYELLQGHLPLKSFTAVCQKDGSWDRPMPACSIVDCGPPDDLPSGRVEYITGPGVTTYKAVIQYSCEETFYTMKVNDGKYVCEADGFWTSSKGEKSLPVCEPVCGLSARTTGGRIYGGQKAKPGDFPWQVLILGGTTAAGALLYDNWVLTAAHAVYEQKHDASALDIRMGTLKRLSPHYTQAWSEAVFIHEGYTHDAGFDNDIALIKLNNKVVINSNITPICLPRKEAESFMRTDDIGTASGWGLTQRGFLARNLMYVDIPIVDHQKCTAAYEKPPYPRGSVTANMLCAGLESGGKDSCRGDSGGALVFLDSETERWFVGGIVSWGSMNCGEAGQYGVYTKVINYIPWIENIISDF
# protocol.notes: SPR, Biacore T200, antibody captured on Protein A chip, MASP-2-CCS-Flag as analyte
observation.type: Kd

Ask: Indicate the recorded Kd value for this binder: humanized anti-human MASP-2 monoclonal antibody 136-Hu (antibody, human IgG4 S228P, kappa, V domains shown) VH: QVQLVQSGAEVKKPGASVKVSCKASGNTFTNYWMHWIRQAPGQGLEWMGYINPNTGYTDFNQKFKDRVTLTADKSTSTAYMELSSLRSEDTAVYYCTLQLGRNFDYWGQGTTVTVSS VL: DIQMTQSPSSLSASVGDRVTITCRASQSVSSSRSTYIHWYQQKPGKAPKLLIYYSSNLESGVPSRFSGSGSGTDFTLTISSLQPEDFATYYCHQSWEIPYTFGQGTKLEIKR
Result: 998 pM
